Numbers sourced from paper PMC7080406.

Documented EC50 across a set of compounds
Target: MT2 (Homo sapiens)
Sequence (P49286 1-362): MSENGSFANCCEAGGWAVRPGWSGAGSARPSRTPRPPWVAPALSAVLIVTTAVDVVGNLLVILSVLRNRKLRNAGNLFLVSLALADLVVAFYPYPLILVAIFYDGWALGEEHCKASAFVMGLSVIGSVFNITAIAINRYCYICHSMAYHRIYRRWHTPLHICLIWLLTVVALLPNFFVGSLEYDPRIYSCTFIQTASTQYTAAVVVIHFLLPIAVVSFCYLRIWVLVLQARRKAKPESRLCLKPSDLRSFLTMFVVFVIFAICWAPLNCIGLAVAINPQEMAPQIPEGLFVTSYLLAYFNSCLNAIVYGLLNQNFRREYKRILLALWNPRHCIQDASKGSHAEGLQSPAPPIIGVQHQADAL
Test: GloSensor Gi/o-mediated cAMP production inhibition assay, MT2
Format: cell-based
Design: expressed in transfected cells; host or cells: HEK293T (ATCC CRL-11268), transient transfection
Conditions: Gi/o mediated; read-out: MT2 EC50
// units = nM; emit number, no label

Compound: COc1cccc(Cn2c(N)cc(=O)[nH]c2=O)c1
Tested System: MT2 (Homo sapiens)
Recorded Measurement: 263
--
Compound: CC(=O)c1sc2nc3c(cc2c1N)CCC3
Tested System: MT2 (Homo sapiens)
Recorded Measurement: 427
--
Compound: COc1cccc(CNC(=O)c2ccno2)c1
Tested System: MT2 (Homo sapiens)
Recorded Measurement: 132

EC50 for `Nc1cc(=O)[nH]c(=S)n1CCc1ccccc1` is 52.5

Per the records, this compound ( `COC(=O)c1[nH]c2cc(OC)ccc2c1N` ) has EC50 equal to 18.2

According to the records, this compound CC(=O)NCC1CCCCN1c1ccnc(C)n1 (stereo not drawn) displays EC50 of 34.7
